Target: human sphingosine kinase type 2 (hSPHK2) (Homo sapiens, UniProt Q9NRA0)
Assay: Sphingosine kinase assay, recombinant human SPHK2 ([32P]S1P product, scintillation counting)
Conditions: read-out: activity hSPHK2 (range estimate of KI)
pKi: −log10 of the molar value. Counter-ions that a name gives are not always drawn.
recorded endpoint: pKi

// known answers, use as guide
N=C(N)N1CC[C@H](O)[C@H]1c1nc(-c2ccc(CCc3ccc(C(F)(F)F)cc3)c(C(F)(F)F)c2)no1 [Compound 40A, hydrochloride]
> 6.00
CCCCOc1ccc2cc(-c3noc([C@@H]4CCCN4C(=N)N)n3)ccc2c1 [Compound 56A]
5.00 to 6.00
CCCCCCCCn1cc(-c2noc([C@@H]3CCCN3C(=N)N)n2)c2ccccc21 [Compound 74A]
5.00 to 6.00

May I ask what pKi has been recorded for CC(C)COc1ccc2cc(-c3noc([C@@H]4CCCN4C(=N)N)n3)ccc2c1 [Compound 14A] ?
< 5.00

---

Below, each entry is listed with its recorded pKi.
Target: human sphingosine kinase type 2 (hSPHK2) (Homo sapiens)
Sequence (Q9NRA0 1-654): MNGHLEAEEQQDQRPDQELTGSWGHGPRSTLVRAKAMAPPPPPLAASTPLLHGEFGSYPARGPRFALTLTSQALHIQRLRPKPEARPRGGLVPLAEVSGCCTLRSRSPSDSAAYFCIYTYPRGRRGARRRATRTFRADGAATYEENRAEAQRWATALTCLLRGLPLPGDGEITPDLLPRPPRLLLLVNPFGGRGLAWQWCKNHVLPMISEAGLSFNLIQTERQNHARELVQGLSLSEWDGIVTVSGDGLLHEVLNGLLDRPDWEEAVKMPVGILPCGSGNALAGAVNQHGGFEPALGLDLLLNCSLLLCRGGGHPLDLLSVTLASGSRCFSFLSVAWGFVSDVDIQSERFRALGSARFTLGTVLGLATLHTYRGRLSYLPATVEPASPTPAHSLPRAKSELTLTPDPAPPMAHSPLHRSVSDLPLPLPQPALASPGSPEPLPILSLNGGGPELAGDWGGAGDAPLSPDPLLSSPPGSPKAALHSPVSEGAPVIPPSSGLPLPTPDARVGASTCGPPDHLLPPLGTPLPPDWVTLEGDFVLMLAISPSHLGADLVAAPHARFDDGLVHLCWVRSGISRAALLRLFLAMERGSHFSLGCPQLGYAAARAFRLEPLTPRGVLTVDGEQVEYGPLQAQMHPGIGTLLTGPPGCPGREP
Test: Sphingosine kinase assay, recombinant human SPHK2 ([32P]S1P product, scintillation counting)
Conditions: read-out: activity hSPHK2 (range estimate of KI)
pKi: −log10 of the molar value. Structures can show the parent of a compound that is named as a salt.

COCCCCOc1ccc(-c2noc([C@@H]3CCCN3C(=N)N)n2)cc1C(F)(F)F [Compound 46A, 2,2,2-trifluoroacetate]
< 5.00

Quick one: pKi of N=C(N)N1CC[C@H](O)[C@H]1c1nc(-c2ccc(OCCc3ccc(C(F)(F)F)cc3)c(C(F)(F)F)c2)no1 [Compound 23A] ?
> 6.00

Could you do the same for CCCCCCCCOc1ccc(-c2noc([C@@H]3CCN3C(=N)N)n2)cc1C(F)(F)F [Compound 13B] , please?
> 6.00

Another: `CCCCCCCCOc1ccc(-c2noc([C@@H]3C[C@@H](O)CN3C(=N)N)n2)cc1C(F)(F)F`
> 6.00

// next record `CCCCCCCCCCCn1cc(-c2noc([C@@H]3CCCN3C(=N)N)n2)c2ccccc21`
5.00 to 6.00

// next record CCCc1ccc(CCc2ccc(-c3noc([C@@H]4[C@@H](O)CCN4C(=N)N)n3)cc2C(F)(F)F)cc1 [Compound 34A, hydrochloride]
> 6.00

---

As shown below, each of these compounds has a reported Ki value.
Biological target: UniProt Q9NRA0
Test: Sphingosine kinase assay, recombinant human SPHK2 ([32P]S1P product, scintillation counting)
Conditions: read-out: activity hSPHK2 (range estimate of KI)
Where a name gives a salt, the structure may show the parent alone.

Please review the following examples before continuing.
N=C(N)N1C[C@H](O)C[C@H]1c1nc(-c2ccc(OCCCc3ccc(Cl)c(Cl)c3)c(C(F)(F)F)c2)no1 [Compound 31A]
< 1000 nM
CCCCCCCCCCn1ccc2c(-c3noc([C@@H]4CCCN4C(=N)N)n3)cccc21 [Compound 11B]
< 1000 nM
C=CCOc1ccc(-c2noc([C@@H]3CCCN3C(=N)N)n2)cc1C(F)(F)F [Compound 77A, hydrochloride]
> 10000 nM
CCCCCCCCn1ccc2c(-c3noc([C@@H]4CCCN4C(=N)N)n3)cccc21
< 1000 nM
CCCC/C=C/COc1ccc(-c2noc([C@@H]3CCCN3C(=N)N)n2)cc1C(F)(F)F [Compound 78A, 2,2,2-trifluoroacetate]
< 1000 nM

Field request: Ki | item: CC(C)=CCC/C(C)=C/COc1ccc(-c2noc([C@@H]3CCCN3C(=N)N)n2)cc1C(F)(F)F [Compound 93A, hydrochloride]
> 10000 nM

Further, for CCCCCC=CCOc1ccc(-c2noc([C@@H]3CCCN3C(=N)N)n2)cc1C(F)(F)F [Compound 82A, 2,2,2-trifluoroacetate] ?
< 1000 nM

How about this compound: `CCCCCCCCOc1ccc(-c2nnc([C@@H]3CCCN3C(=N)N)s2)cc1C(F)(F)F`
< 1000 nM

What do you get for CCCCCCCCn1ccc2ccc(-c3noc([C@@H]4CCCN4C(=N)N)n3)cc21 [Compound 75A] ?
> 10000 nM

// same read-out, input: CCCC=CCOc1ccc(-c2noc([C@@H]3CCCN3C(=N)N)n2)cc1C(F)(F)F [Compound 80A, 2,2,2-trifluoroacetate]
1000 to 10000 nM

Entry CCc1ccc(CCc2ccc(-c3noc([C@@H]4CCCN4C(=N)N)n3)cc2C(F)(F)F)cc1 [Compound 50A, hydrochloride] please
< 1000 nM

Ok, now N=C(N)N1CCC[C@H]1c1nc(-c2ccc(OCCCCO)c(C(F)(F)F)c2)no1 [Compound 45A, hydrochloride]
1000 to 10000 nM

Next: N=C(N)N1CCC[C@H]1c1nc(-c2ccc(OC/C=C/c3cccc(Br)c3)c(C(F)(F)F)c2)no1 [Compound 86A, hydrochloride]
< 1000 nM

What do you get for N=C(N)N1CC[C@H](O)[C@H]1c1nc(-c2ccc(CCC3CCCC3)c(C(F)(F)F)c2)no1 [Compound 43A, hydrochloride] ?
< 1000 nM

---

// Ki lookup, one value per entry
Target: UniProtKB Q9NYA1
Test: Sphingosine kinase assay, recombinant human SPHK1 ([32P]S1P product, scintillation counting)
Details: read-out: activity hSPHK1 (range estimate of KI)
Counter-ions that a name gives are not always drawn.

Look at this molecule and give its reported Ki. C=CCOc1ccc(-c2noc([C@@H]3CCCN3C(=N)N)n2)cc1C(F)(F)F [Compound 77A, hydrochloride]
> 10 µM

Do the same for N=C(N)N1C[C@H](O)C[C@H]1c1nc(-c2ccc(OCCCc3ccc4c(c3)OCCO4)c(C(F)(F)F)c2)no1 [Compound 59A] please
> 10 µM

Proceed to CCCCCCCCn1ccc2ccc(-c3noc([C@@H]4CCCN4C(=N)N)n3)cc21 [Compound 75A]
> 10 µM

Another molecule to check: COCCCOc1ccc2cc(-c3noc([C@@H]4CCCN4C(=N)N)n3)ccc2c1 [Compound 57A]
> 10 µM

Note, next up: N=C(N)N1CCC[C@H]1c1nc(-c2ccc(CCC3CCCCC3)c(C(F)(F)F)c2)no1 [Compound 76A, 2,2,2-trifluoroacetate]
> 10 µM

Another molecule to check: CCCCCCCCOc1ccc(-c2noc([C@@H]3CCN3C(=N)N)n2)cc1C(F)(F)F [Compound 13B]
1 to 10 µM

---

The entries below are paired with their reported Ki.
Biological target: human sphingosine kinase type 1 (hSPHK1) (Homo sapiens)
Sequence (Q9NYA1 whole entry): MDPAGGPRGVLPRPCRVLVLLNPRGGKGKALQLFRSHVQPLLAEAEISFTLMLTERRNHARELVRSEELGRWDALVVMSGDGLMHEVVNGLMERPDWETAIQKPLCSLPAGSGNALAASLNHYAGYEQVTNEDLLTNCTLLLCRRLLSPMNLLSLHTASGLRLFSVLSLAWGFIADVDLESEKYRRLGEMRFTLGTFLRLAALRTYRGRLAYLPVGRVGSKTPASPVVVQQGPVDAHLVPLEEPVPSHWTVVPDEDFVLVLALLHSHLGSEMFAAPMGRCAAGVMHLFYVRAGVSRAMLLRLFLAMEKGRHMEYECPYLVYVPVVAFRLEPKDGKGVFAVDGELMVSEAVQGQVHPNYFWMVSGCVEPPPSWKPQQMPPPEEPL
Assay: Sphingosine kinase assay, recombinant human SPHK1 ([32P]S1P product, scintillation counting)
Conditions: read-out: activity hSPHK1 (range estimate of KI)

CCCCCCCCn1ccc2c(-c3noc([C@@H]4CCCN4C(=N)N)n3)cccc21
> 10 µM

// below: Ki requested for another molecule
Find Ki (human sphingosine kinase type 1 (hSPHK1) (Homo sapiens)) for the entry N=C(N)N1CCC[C@H]1c1nc(-c2ccc3cc(OCCc4cccc(C(F)(F)F)c4)ccc3c2)no1 [Compound 60A]
> 10 µM

---

Attribute: Ki
Molecular target: human sphingosine kinase type 2 (hSPHK2) (Homo sapiens)
Sequence (Q9NRA0 1-654): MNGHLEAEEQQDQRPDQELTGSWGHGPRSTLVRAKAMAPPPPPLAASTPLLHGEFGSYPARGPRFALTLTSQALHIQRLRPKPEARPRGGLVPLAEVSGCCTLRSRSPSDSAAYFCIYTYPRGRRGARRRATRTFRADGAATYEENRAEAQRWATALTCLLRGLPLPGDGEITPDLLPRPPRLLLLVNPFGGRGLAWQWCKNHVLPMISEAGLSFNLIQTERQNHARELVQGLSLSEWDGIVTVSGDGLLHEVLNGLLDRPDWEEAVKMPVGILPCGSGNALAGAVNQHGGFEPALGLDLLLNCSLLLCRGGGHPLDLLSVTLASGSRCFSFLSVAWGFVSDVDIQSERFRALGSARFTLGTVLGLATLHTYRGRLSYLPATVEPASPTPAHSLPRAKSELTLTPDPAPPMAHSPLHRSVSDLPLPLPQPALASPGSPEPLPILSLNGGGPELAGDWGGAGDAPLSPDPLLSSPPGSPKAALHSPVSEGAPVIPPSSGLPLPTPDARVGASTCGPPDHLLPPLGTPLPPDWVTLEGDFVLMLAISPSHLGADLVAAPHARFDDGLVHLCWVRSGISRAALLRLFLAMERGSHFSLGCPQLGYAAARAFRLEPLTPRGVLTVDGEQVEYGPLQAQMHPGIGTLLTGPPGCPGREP
Test: Sphingosine kinase assay, recombinant human SPHK2 ([32P]S1P product, scintillation counting)
Settings: read-out: activity hSPHK2 (range estimate of KI)
Counter-ions that a name gives are not always drawn.

CCCCCOc1ccc2cc(-c3noc([C@@H]4[C@@H](O)CCN4C(=N)N)n3)ccc2c1 [Compound 14B]
< 1 µM
N=C(N)N1CCC[C@H]1c1nc(-c2ccc3cc(O)ccc3c2)no1 [Compound 51A]
> 10 µM
N=C(N)N1CCC[C@H]1c1nc(-c2ccc(OC/C=C/c3ccc(C(F)(F)F)cc3)c(C(F)(F)F)c2)no1 [Compound 88A, 2,2,2-trifluoroacetate]
< 1 µM

What value of Ki has been recorded for this entry: CCC/C=C\CCOc1ccc(-c2noc([C@@H]3CCCN3C(=N)N)n2)cc1C(F)(F)F [Compound 84A, 2,2,2-trifluoroacetate]
< 1 µM

What do you get for CCCCCCCCOc1ccc(-c2noc([C@@H]3[C@H](O)CCN3C(=N)N)n2)cc1C(F)(F)F [Compound 10A] ?
> 10 µM

Subsequent entry: N=C(N)N1CCC[C@H]1c1nc(-c2ccc(CCC3CCCC3)c(C(F)(F)F)c2)no1 [Compound 44A, hydrochloride]
1 to 10 µM

Same again, this time with Cc1ccc(COc2ccc3cc(-c4noc([C@@H]5CCCN5C(=N)N)n4)ccc3c2)cc1 [Compound 64A]
> 10 µM
